# assay: compound fluorescence in toxin protease inhibitor counterscreen, primary screen, artefact control for toxin protease inhibitor project, biochemical, multiplex microsphere, HTS (AID 624483)
# condition summary: compound autofluorescence counterscreen, microsphere flow cytometry
Out of some 360,000 compounds screened, about 11,000 (3.1%) were called active. Roughly 2% stayed inconclusive and do not appear here. Cut-off read from the data, not from the text of the source: active = fluorescence intensity above about 16000; inconclusive = no clear call, values can overlap the other calls; inactive = below that. This excerpt belongs to a sample that is enriched for actives.
The reply should be one of these categories: active, inactive

Take a look at these entries with their results.
>  <compound>
CCCCCn1nnnc1C1c2ccccc2C(=O)N1Cc1ccco1 (stereo unspecified)

>  <category label>
inactive

$$$$
>  <compound>
COc1cncc(-c2cnc3sc(NCCc4ccccn4)nn23)c1

>  <category label>
inactive

$$$$
>  <compound>
CCOc1ccc(C)cc1S(=O)(=O)NC1CCCCCC1

>  <category label>
inactive

$$$$
>  <compound>
COc1ccc(C)cc1S(=O)(=O)NC1CCCCC1

>  <category label>
active

$$$$
>  <compound>
Cc1cc2nc(-c3ccco3)c(Cc3cccc(F)c3)n2c(C)c1Br

>  <category label>
inactive

$$$$
>  <compound>
Cc1ccc(S(=O)(=O)N2CCCC(C(=O)N3CCN(C)CC3)C2)cc1 (stereo unspecified)

>  <category label>
inactive

$$$$
>  <compound>
COc1ccc(C(=O)NCc2ccccc2C)cc1S(=O)(=O)NC1CCCC1

>  <category label>
inactive

$$$$
>  <compound>
CC(C)(C)C(=O)NC(NC(=S)Nc1ccc(S(N)(=O)=O)cc1)C(Cl)(Cl)Cl (stereo unspecified)

>  <category label>
inactive

$$$$
>  <compound>
COc1ccc(CNC(=O)CN2C(=O)NC3(CCCc4sccc43)C2=O)cc1 (stereo unspecified)

>  <category label>
inactive

$$$$
>  <compound>
O=C(NCc1ccccc1)C1c2ccccc2OCC(=O)N1CCCN1CCOCC1 (stereo unspecified)

>  <category label>
inactive

$$$$

// switching to the query compound
Query :: Would you mind telling me which call this test gave CC(=O)Nc1cccc(Nc2ccc(C#N)cc2)c1 ?
Result :: inactive

====

# assay: compound fluorescence in toxin protease inhibitor counterscreen, primary screen, artefact control for toxin protease inhibitor project, biochemical, multiplex microsphere, HTS (AID 624483)
# condition summary: compound autofluorescence counterscreen, microsphere flow cytometry
In all, about 360,000 compounds went through this assay and about 11,000 (3.1%) were called active. About 2% were inconclusive and are not listed. Rule as the data show it: active = fluorescence intensity above about 16000; inconclusive = no clear call, values can overlap the other calls; inactive = below that. For the sample, actives were picked, then their nearest neighbours and some compounds at random.
Could you please pick one outcome from this set? true = active, false = inactive

As a guide, the following entries are already answered.
>  <compound>
CC1CCCC(NC(=O)c2cccc(N3CCCC3=O)c2)C1C (stereo not drawn)

>  <category label>
false

$$$$
>  <compound>
N=c1c2c3c(sc2ncn1CCCN1CCOCC1)CCCCC3

>  <category label>
false

$$$$
>  <compound>
COc1ccc(CCNC(=O)c2c(C)nn(-c3ccccc3)c2Cl)cc1

>  <category label>
false

$$$$

Query :: # outcome recorded in this test, key = O=C(Cc1ccc(Cl)cc1)NCc1nc(-c2ccccc2)no1
Result :: false

Query :: Query: recorded result category for O=C(C(Cl)Cl)N1CCN(c2ccccn2)CC1 in this test
Result :: false

Query :: Dear colleague, could you share the recorded outcome for O=C(CCN1C(=O)[C@H]2CC=CC[C@H]2C1=O)NCc1nc(-c2ccccc2)no1 when you have a moment?
Result :: false

Query :: Given Brc1cc(Br)c(Oc2cc(Br)c(Br)cc2Br)cc1Br , state the outcome it received in this test.
Result :: false

====

# assay: compound fluorescence in toxin protease inhibitor counterscreen, primary screen, artefact control for toxin protease inhibitor project, biochemical, multiplex microsphere, HTS (AID 624483)
# condition summary: compound autofluorescence counterscreen, microsphere flow cytometry; stronger effect = higher value
Among all 360,000 compounds or so, about 11,000 (3.1%) were called active. Roughly 2% stayed inconclusive and do not appear here. The full list was thinned out, with actives kept by preference.
Reported fluorescence intensity values follow for various compounds
Give the figure only, with no unit attached.

>  <compound>
NC(c1csc(NC(=O)Nc2cccc(C(F)(F)F)c2)n1)C1CCCCC1 (stereo unspecified)

>  <fluorescence intensity>
2870

$$$$

Kindly note the recorded fluorescence intensity for O=C(CSc1nnc(-c2ccccn2)n1-c1ccccc1)Nc1ccc2c(c1)OCO2 , which is 2680

For reference, reported fluorescence intensity for CC(=O)N1CCN(CC(c2ccccc2)c2ccccc2)CC1 stands at 3040

Value of fluorescence intensity reported for the compound COc1ccc(-n2c(SCC(=O)OC(C)C)nnc2-c2ccccn2)cc1 is 23500

Reported fluorescence intensity of OC[C@@H]1CN(Cc2cccs2)C[C@H](n2cnc3c(Nc4ccccc4)ncnc32)O1 : 2850

In plain terms, Cc1cccc(N(CC(=O)N2CCOCC2)S(C)(=O)=O)c1 has a documented fluorescence intensity of 8740

====

In this section, each of the compounds is paired with its reported fluorescence intensity.
# assay: compound fluorescence in toxin protease inhibitor counterscreen, primary screen, artefact control for toxin protease inhibitor project, biochemical, multiplex microsphere, HTS (AID 624483)
# condition summary: compound autofluorescence counterscreen, microsphere flow cytometry; stronger effect = higher value
About 11,000 (3.1%) of roughly 360,000 compounds were called active. Not shown: some 2% with an inconclusive outcome. This excerpt belongs to a sample that is enriched for actives.
Please give the numeric answer without any surrounding text.

>  <compound>
O=C1NC[C@H](CCCCN2C[C@H](Cc3ccccc3)N(Cc3ccccc3)C(=O)C2=O)N(CCc2ccc(O)cc2)C1=O

>  <fluorescence intensity>
4050

$$$$
>  <compound>
CN(Cc1ccc2nsnc2c1)Cc1nc(Cc2cccc(F)c2)no1

>  <fluorescence intensity>
4550

$$$$
>  <compound>
CCC(=O)N1CCC(C)(C(=O)Nc2cc(OC)c(OC)c(OC)c2)C1 (centres undefined)

>  <fluorescence intensity>
3060

$$$$

Recorded fluorescence intensity (compound Cc1ccc(-n2c(=O)c(C#N)cc3c(=O)n4ccccc4nc32)cc1C ): 24200

The measured fluorescence intensity associated with CCOc1cccc(OCCCOc2cccc3cccnc23)c1 reads 2100

fluorescence intensity in this record for CCn1c(=N)c(S(=O)(=O)c2ccc(F)cc2)cc2c(=O)n3ccccc3nc21 : 2990

fluorescence intensity recorded for this compound, CC(=O)Nc1ccc(S(=O)(=O)N2CCC(NC(=O)c3ccccc3)CC2)cc1 , is 3580

Record summary for CCOc1ccc(C(C)=O)cc1COC(=O)CNC(=O)c1cccs1 : reported fluorescence intensity = 6570

Lab note: measured fluorescence intensity of Cc1ccc(Oc2ccc3c(c2)C(=O)N(c2cccc4cccnc24)C3=O)cc1 was 21000

# compound CC(=O)Nc1ccc(S(=O)(=O)NCCc2ccccc2)cc1 ; its fluorescence intensity = 11200

Query CNC(=O)CN1C(=O)NC(c2ccccc2)(c2ccccc2)C1=O yields fluorescence intensity of 4630

Sure, the documented fluorescence intensity for CN(C)CCNC(=O)c1cccc(-c2cnc3c(NC=O)cc(-c4cccc(C(F)(F)F)c4)cn23)c1 is 3700

Consider Cn1c(=O)[nH]c(=O)c2c1nc(Br)n2CCCCSc1nc2ccccc2o1 . Its measured fluorescence intensity is 24200

Note to self: fluorescence intensity recorded for CC=CCn1c(SCCCc2ccccc2)nc2c1c(=O)[nH]c(=O)n2C was 3020

Reported fluorescence intensity for COc1ccc(C)c(Cn2c(-c3nonc3N)nc3ccccc32)c1 was 8560

Reported fluorescence intensity ( CC(C)(C)C(=O)N(Cc1ccccc1)c1ccccn1 ) = 4430

The compound identified as COc1cccc(CNc2nc(NCc3ccccc3OC)nc3ccsc23)c1 registered its fluorescence intensity at 2990

Just so you know, measured fluorescence intensity for COC(=O)c1ccc(S(=O)(=O)N2CCc3ccccc3C2)cc1 came out at 3480

Just so you know, measured fluorescence intensity for CCCNC(=O)C1(C)CCCN(Cc2c(C)nn(-c3ccccc3)c2C)C1 (centres undefined) came out at 3870

Kindly note the recorded fluorescence intensity for Cc1cccc(NC(=O)C2CCN(S(=O)(=O)c3cccc4cccnc34)CC2)c1 , which is 5170

Note to self: fluorescence intensity recorded for CCN(CC)c1ncnc2c1ncn2[C@H]1CN(Cc2cccs2)C[C@@H](CO)O1 was 3720

Lab note: Cn1c(CN2CCOCC2)nc2cc(NC(=O)c3ccc(Cl)cc3)ccc21 gave fluorescence intensity of 4450

====

# assay: compound fluorescence in toxin protease inhibitor counterscreen, primary screen, artefact control for toxin protease inhibitor project, biochemical, multiplex microsphere, HTS (AID 624483)
# condition summary: compound autofluorescence counterscreen, microsphere flow cytometry; stronger effect = higher value
Among all 360,000 compounds or so, about 11,000 (3.1%) were called active. Inconclusive results (about 2%) are left out. The sample holds actives, similar compounds and a random draw of the others, so the mix is not that of the screen.
property: fluorescence intensity
Output spec: single numeric token, no unit.

# annotated cases, reported fluorescence intensity shown
>  <compound>
COC(=O)[C@@]1(Cc2ccc(F)cc2)[C@H]2c3cc(C(=O)N4CCCC4)n(C[C@H](O)CO)c3C[C@H]2CN1C(=O)c1ccccc1

>  <fluorescence intensity>
4320

$$$$
>  <compound>
CCc1nc2c(OCCOc3ccccc3)cccn2c1N(C)C(=O)c1ccccc1F

>  <fluorescence intensity>
3430

$$$$
>  <compound>
OCCc1ccc(NCCc2ccco2)cc1

>  <fluorescence intensity>
6000

$$$$
>  <compound>
COc1ccc(COC[C@H](CC(C)C)N2CCN(C(=O)c3cccc(C(F)(F)F)c3)CCC2=O)cc1

>  <fluorescence intensity>
4210

$$$$
>  <compound>
Nc1nc2cc(Cl)ccc2n1N

>  <fluorescence intensity>
6290

$$$$

Input O=C1NC[C@H](CCCCN2C[C@H](Cc3ccc(O)cc3)N(CCc3ccccc3)C(=O)C2=O)N(CCc2ccccc2)C1=O . Output fluorescence intensity: 5840

compound Cc1ccc(NC(=O)[C@H](Cc2ccccc2)NC(=O)CC[C@H]2O[C@@H](n3ccc(=O)[nH]c3=O)[C@H](O)[C@@H]2O)cc1C , fluorescence intensity observed: 5530

The reported fluorescence intensity of the compound N#Cc1ccc(-c2ccc(Cl)cc2)nc1Oc1ccc(F)cc1 was 9640

Reported fluorescence intensity for Cc1ccc(Cn2cc(CN3CC(N4CCN(C)CC4)CS3(=O)=O)nn2)cc1 (stereo not given) was 5630

fluorescence intensity for Cc1ccc2c(=O)cc(C(=O)NCCc3ccc(S(N)(=O)=O)cc3)oc2c1C is 3650
